The measurements presented in this section are drawn from patent US20240335431A1.

Catalogue of HLM CLint values
- Test Details: Human liver microsomes (HLMs) intrinsic clearance assay
- Type: in vitro ADME
- Conditions Used: human, microsomes, 1 µM, pH 7.4
// return numeric value only (unit: µL/min/mg, not printed)

Study these solved cases before continuing.
>>> value_measured("Cc1c(C(=O)[C@@H]2CCN(C(=O)[C@H]3NC[C@@H]4C[C@@H]43)[C@@H](C)C2)c2ccncc2n1-c1ccc(F)cc1C(=O)N(CC(F)(F)F)C(C)C (single isomer, unassigned) [Example 53-2]")
77
>>> value_measured("Cc1c(C(=O)[C@@H]2CCN(C(=O)[C@H]3NC[C@@H]4C[C@@H]43)[C@@H](C)C2)c2ccncc2n1-c1ccc(F)cc1C(=O)N(CC(F)(F)F)C(C)C (single isomer, unassigned) [Example 53-3]")
155
>>> value_measured("CCN(C(=O)c1cc(F)ccc1-n1c(C)c(C(=O)C2CCN(C(=O)[C@H]3NC[C@@H]4C[C@@H]43)CC2)c2ccncc21)C(C)C (single isomer, unassigned) [Example 48-2]")
55
>>> value_measured("Cc1c(C(=O)[C@@H]2CCN(C(=O)[C@H]3NC[C@@H]4C[C@@H]43)[C@@H](C)C2)c2ccncc2n1-c1ccc(F)cc1C(=O)N(CC(F)(F)F)C(C)C (single isomer, unassigned) [Example 53-4]")
89

From here, focus on the item given below.
Q: Requested read-out: HLM CLint. Entry: Cc1c(C(=O)C2CCN(C(=O)[C@H]3NC[C@@H]4C[C@@H]43)CC2)c2ccncc2n1-c1ccc(F)cc1C(=O)N(CC(F)(F)F)C(C)C (single isomer, unassigned)
Result: 52

====

- Test Details: Human hepatocyte intrinsic clearance assay
- Assay type: in vitro ADME
- Conditions Used: human hepatocytes
Catalogue of HH CLint values
// return numeric value only (unit: μl/min/1E6, not printed)

>>> value_measured("CC(C)c1ncsc1-c1cc(F)ccc1-n1cc(C(=O)C2CCN(C(=O)[C@H]3N[C@@H]4CC[C@H]3C4)CC2)c2ccncc21.O=CO")
2.5
>>> value_measured("CC(C)c1ncsc1-c1cc(F)ccc1-n1cc(C(=O)C2CN(C(=O)[C@H]3N[C@@H]4CC[C@H]3C4)C2)c2ccncc21.O=CO")
3.9
>>> value_measured("CC(C)N(C(=O)c1cc(F)ccc1-n1cc(C(=O)[C@@H]2CCN(C[C@H]3CC[C@H](NS(C)(=O)=O)CC3)C2)c2ccncc21)C(C)C")
2.3
>>> value_measured("CC(C)N(C(=O)c1cc(F)ccc1-n1cc(C(=O)C2CCN(C[C@H]3CC[C@H](NS(C)(=O)=O)CC3)CC2)c2ccncc21)C(C)C")
1.2

From here, focus on the item given below.
Q: Requested read-out: HH CLint. Entry: CC(C)N(C(=O)c1cc(F)ccc1-n1cc(C(=O)C2CCN(C(=O)[C@H]3NC[C@@H]4CC[C@@H]43)CC2)c2ccncc21)C(C)C (relative stereo)
Result: 3.6

====

- System: UniProt Q12809
- Sequence (Q12809 whole entry): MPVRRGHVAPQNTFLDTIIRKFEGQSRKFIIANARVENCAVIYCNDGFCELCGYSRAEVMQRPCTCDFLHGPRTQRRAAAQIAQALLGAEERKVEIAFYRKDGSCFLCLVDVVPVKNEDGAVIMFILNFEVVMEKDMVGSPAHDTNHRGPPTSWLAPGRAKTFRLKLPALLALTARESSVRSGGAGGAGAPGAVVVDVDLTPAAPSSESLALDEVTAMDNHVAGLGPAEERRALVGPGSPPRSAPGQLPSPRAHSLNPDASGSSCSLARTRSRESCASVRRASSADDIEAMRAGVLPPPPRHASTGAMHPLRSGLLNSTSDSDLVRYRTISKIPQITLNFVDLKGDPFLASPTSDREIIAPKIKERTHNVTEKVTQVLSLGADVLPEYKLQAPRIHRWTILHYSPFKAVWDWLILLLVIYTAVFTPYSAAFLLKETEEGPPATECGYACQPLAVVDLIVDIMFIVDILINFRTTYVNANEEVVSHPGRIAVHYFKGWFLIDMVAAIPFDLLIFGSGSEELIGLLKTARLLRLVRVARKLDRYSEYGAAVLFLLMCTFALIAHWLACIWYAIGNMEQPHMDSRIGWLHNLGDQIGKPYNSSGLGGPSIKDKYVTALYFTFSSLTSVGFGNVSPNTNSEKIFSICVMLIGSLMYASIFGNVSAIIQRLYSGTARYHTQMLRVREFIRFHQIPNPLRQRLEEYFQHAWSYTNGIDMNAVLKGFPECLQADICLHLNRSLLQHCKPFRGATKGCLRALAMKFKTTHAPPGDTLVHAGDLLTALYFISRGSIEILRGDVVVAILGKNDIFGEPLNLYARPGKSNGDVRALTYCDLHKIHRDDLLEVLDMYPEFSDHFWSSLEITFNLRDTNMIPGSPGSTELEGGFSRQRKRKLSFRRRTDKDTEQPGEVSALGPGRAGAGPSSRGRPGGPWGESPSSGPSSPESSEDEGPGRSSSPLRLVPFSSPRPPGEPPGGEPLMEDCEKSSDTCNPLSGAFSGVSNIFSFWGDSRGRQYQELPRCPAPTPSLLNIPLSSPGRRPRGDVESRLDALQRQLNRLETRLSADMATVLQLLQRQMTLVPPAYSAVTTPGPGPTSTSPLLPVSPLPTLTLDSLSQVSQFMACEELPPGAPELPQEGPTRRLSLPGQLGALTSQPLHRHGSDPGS
- Test Details: hERG assay 2, QPatch II 48X, room temperature
- Assay type: cell-based
- Conditions Used: hERG DUO cell line, top 200 μM
Measurement Kind: pIC50
Value format note: pIC50 is -log10 of concentration (mol/L); just state the number.

>>> value_measured("CC(C)N(C(=O)c1cc(F)ccc1-n1cc(C(=O)C2CCN(C(=O)[C@H]3NC[C@@H]4C[C@@H]43)CC2)c2ccncc21)C(C)C [Example 19]")
3.89
>>> value_measured("CC(C)N(C(=O)c1cc(F)ccc1-n1cc(C(=O)C2CCN(C(=O)[C@H]3N[C@@H]4CC[C@H]3C4)CC2)c2ccncc21)C(C)C [Example 16]")
3.89
>>> value_measured("CC(C)n1nccc1-c1cc(F)ccc1-n1cc(C(=O)C2CCN(C(=O)[C@H]3N[C@@H]4CC[C@H]3C4)CC2)c2ccncc21 [Example 36]")
4.44
>>> value_measured("CCN(C(=O)c1cc(F)ccc1-n1c(C)c(C(=O)C2CCN(C(=O)[C@H]3NC[C@@H]4C[C@@H]43)CC2)c2ccncc21)C(C)C [Example 47]")
3.71
>>> value_measured("CC(C)c1ncccc1-c1cc(F)ccc1-n1cc(C(=O)C2CCN(C(=O)[C@H]3N[C@@H]4CC[C@H]3C4)CC2)c2ccncc21 [Example 38]")
4.59
>>> value_measured("CC(C)N(C(=O)c1cc(F)ccc1-n1cc(C(=O)C2CN(C(=O)[C@H]3N[C@H]4C[C@@H]3[C@@H](F)C4)C2)c2ccncc21)C(C)C [Example 7]")
3.82
>>> value_measured("CC(C)c1ncccc1-c1cc(F)ccc1-n1cc(C(=O)C2CN(C(=O)[C@H]3N[C@@H]4CC[C@H]3C4)C2)c2ccncc21 [Example 10]")
4.10
>>> value_measured("Cc1c(C(=O)C2CCN(C(=O)[C@H]3NC[C@@H]4C[C@@H]43)CC2)c2ccncc2n1-c1ccc(F)cc1C(=O)N(C(C)C)C(C)C (single isomer, unassigned) [Example 55-2]")
4.08

From here, focus on the item given below.
Q: Requested read-out: pIC50. Entry: Cc1c(C(=O)C2CCN(C(=O)[C@@H]3CCC(C)(C)N3)CC2)c2ccncc2n1-c1ccc(F)cc1C(=O)N(C(C)C)C(C)C (single isomer, unassigned) [Compound 56-2]
Result: 3.86
